TARGET_OR_SYSTEM: GST-RIPK1 (recombinant GST-RIPK1 kinase domain (residues 1-327)) (Homo sapiens)
Construct: recombinant GST-RIPK1 kinase domain (residues 1-327) enzyme produced from baculovirus-transfected Sf21 cells
ASSAY_COMMENT: RIPK1-ADP-Glo Enzymatic Assay
RUN_PARAMETERS: ten-point titration, top compound concentration of 100000 nM; 25 nM GST-RIPK1, 300 μM ATP, 3 μM dephosphorylated-MBP; 30 min pre-incubation, 150 min reaction
QUANTITY_MEASURED: EC50 (nM)

For orientation, consider the following solved cases.
O=C1N2[C@@H](CC[C@H]2c2ccccc2)OC12CC(Oc1ccnc(Cl)c1)C2 (stereo partly drawn) | 32
O=C1N2[C@@H](CC[C@H]2c2cnccn2)OC12CC(OCc1ccc3cnoc3c1)C2 (stereo partly drawn) | 44
CCC(C)Oc1cccc(COC2CC3(C2)OC2CC[C@@H](c4cnccn4)N2C3=O)n1 (stereo partly drawn) | 46

a. O=C1N2[C@@H](CC[C@H]2c2cc(F)cc(F)c2)OC12CC(Oc1ccc(F)cn1)C2 (single isomer, unassigned) [Example 9.35]
b. O=C1N2C(CC[C@H]2c2cnccn2)OC12CC(OCc1cc3cncnc3s1)C2 (stereo partly drawn) [Example 18.20]
c. N#Cc1cc(F)cc(OC2CC3(C2)O[C@@H]2CC[C@@H](c4cnccn4)N2C3=O)c1 (stereo partly drawn) [Example 19.4]
Q. Output the entries ranked by EC50 from maximum down to minimum. // list labels; follow requested order
A. a, c, b

###

TARGET_OR_SYSTEM: GST-RIPK1 (recombinant GST-RIPK1 kinase domain (residues 1-327)) (Homo sapiens)
Construct: recombinant GST-RIPK1 kinase domain (residues 1-327) enzyme produced from baculovirus-transfected Sf21 cells
Sequence (Q13546 1-327): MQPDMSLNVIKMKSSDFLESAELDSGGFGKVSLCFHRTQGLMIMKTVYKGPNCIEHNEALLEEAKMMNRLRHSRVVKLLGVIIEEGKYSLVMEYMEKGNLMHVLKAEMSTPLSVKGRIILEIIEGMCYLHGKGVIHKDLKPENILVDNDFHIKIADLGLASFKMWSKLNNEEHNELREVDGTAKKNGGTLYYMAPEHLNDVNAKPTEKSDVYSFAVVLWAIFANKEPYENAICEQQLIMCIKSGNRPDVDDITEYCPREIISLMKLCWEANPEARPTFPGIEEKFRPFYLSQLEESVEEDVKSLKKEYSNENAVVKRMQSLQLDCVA
ASSAY_COMMENT: RIPK1-ADP-Glo Enzymatic Assay
RUN_PARAMETERS: ten-point titration, top compound concentration of 100000 nM; 25 nM GST-RIPK1, 300 μM ATP, 3 μM dephosphorylated-MBP; 30 min pre-incubation, 150 min reaction
QUANTITY_MEASURED: EC50 (nM)

For orientation, consider the following solved cases.
O=C1N2[C@@H](CC[C@H]2c2cnccn2)O[C@]12C[C@H](Oc1ccc(F)cc1F)C2 | 20
N#Cc1cc(O[C@H]2C[C@@]3(C2)O[C@@H]2CC[C@@H](c4cnccn4)N2C3=O)ncn1 | 21
Cn1ccc([C@@H]2CC[C@H]3O[C@]4(C[C@@H](Oc5cccc(C#N)c5)C4)C(=O)N32)n1 | 203

P. Cn1cc(C2CCC3OC4(CC(Oc5cc(C#N)ncn5)C4)C(=O)N32)cn1 (single isomer, unassigned) [Example 6.4]
Q. O=C1N2[C@@H](CC[C@H]2c2cc(F)cc(F)c2)O[C@]12C[C@@H](Oc1cc(F)ncn1)C2
R. O=C1N2C(CC[C@H]2c2cnccn2)OC12CC(OCc1cc3ncccc3s1)C2 (stereo partly drawn) [Example 18.91]
Q. Output the entries ranked by EC50 from maximum down to minimum. // list labels; follow requested order
A. P, Q, R
(P: 2830 nM, Q: 35 nM, R: 22 nM)

P. Cn1ccc([C@@H]2CC[C@H]3OC4(CC(Oc5cnccn5)C4)C(=O)N32)n1 (stereo partly drawn)
Q. O=C1N2[C@H](CC[C@H]2c2cnccn2)O[C@]12C[C@@H](Oc1ncnn3cccc13)C2
R. O=C1N2C(CC[C@H]2c2cnccn2)OC12CC(OCc1cnc3nccn3c1)C2 (stereo partly drawn) [Example 18.94]
S. O=C1N2C(CC[C@H]2c2cnccn2)OC12CC(OCc1cccc3nccn13)C2 (stereo partly drawn) [Example 18.84]
T. Cc1cn(-c2cc(OC3CC4(C3)O[C@@H]3CC[C@@H](c5cc(F)cc(F)c5)N3C4=O)ncn2)cn1 (single isomer, unassigned) [Example 9.9]
Q. Let's sort these by EC50, smallest first. Go ahead? // list labels; follow requested order
A. Q, P, S, R, T
(Q: 56 nM, P: 124 nM, S: 182 nM, R: 283 nM, T: 475 nM)

Reference source for all entries: patent US20250154173A1
